Items are presented alongside their recorded growth.
# System: NCI-H226 lung
# Test: NCI-60 one-dose screen, 48 h (100 = growth as untreated, 0 = no growth, -100 = all killed)
# Reported Conditions: 10 µM unless noted
This is part of a sample that, as a whole, favours compounds with a hit. Of some 83,000 tested, about 20% had one in any assay.
Report as a plain number; the unit % is understood.

- Compound: "Nc1nc(SCc2cccc([N+](=O)[O-])c2)c2[nH]cnc2n1"
  Quantity Name: "growth"
  Output Unit: "%"
  Observed Result: 90
- Compound: "c1ccc(-c2nc(N3CCCNCC3)c3nc(-c4ccccc4)oc3n2)cc1"
  Quantity Name: "growth"
  Output Unit: "%"
  Observed Result: 49.9
- Compound: "COc1ccc(C2CC(c3cc(OC)c(OC)c(OC)c3)=NN2C(C)=O)cc1OCC(=O)Nc1nc2ccc(C(F)(F)F)cc2s1 (stereo not given)"
  Quantity Name: "growth"
  Output Unit: "%"
  Observed Result: 40.2
- Compound: "Cn1cc(-c2noc(-c3cn(C)c4ncc(F)cc34)n2)c2cc(Br)ccc21"
  Quantity Name: "growth"
  Output Unit: "%"
  Observed Result: 98.7

We now examine a further compound.
Given the entry CCCCC(CC)COC(=O)C[N+](C)(C)CCOC(c1ccccc1)c1ccccc1 (stereo not given) , what growth was observed with NCI-H226 lung? 54.1

Recorded values, source PubChem BioAssay (NCI).
